Tgt: MMP-2 (Homo sapiens, UniProt P08253)
Construct: made in house; host or cells: MMP-2-transfected p2AHT2 cells
Sequence (P08253 110-660): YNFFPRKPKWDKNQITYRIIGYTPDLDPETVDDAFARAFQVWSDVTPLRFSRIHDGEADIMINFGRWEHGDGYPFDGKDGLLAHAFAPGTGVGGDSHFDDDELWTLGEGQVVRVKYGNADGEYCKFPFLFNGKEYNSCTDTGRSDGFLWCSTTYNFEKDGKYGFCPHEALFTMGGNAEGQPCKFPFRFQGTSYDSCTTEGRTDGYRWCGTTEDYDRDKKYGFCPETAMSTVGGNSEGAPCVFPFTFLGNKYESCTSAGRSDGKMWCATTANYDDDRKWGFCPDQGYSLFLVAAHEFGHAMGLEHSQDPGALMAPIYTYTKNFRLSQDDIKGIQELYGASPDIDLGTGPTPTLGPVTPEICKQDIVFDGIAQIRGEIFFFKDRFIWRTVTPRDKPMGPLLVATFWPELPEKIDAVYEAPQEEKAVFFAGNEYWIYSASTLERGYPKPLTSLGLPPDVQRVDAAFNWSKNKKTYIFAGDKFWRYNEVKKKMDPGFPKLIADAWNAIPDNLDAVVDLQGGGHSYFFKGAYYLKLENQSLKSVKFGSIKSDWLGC
Assay details: In vitro MMP inhibition, Ki determination (fluorogenic substrate II)
Format: biochemical
Run conditions: value not in parenthesis; read-out: MMP-2 Ki
Kindly apply the following: Y if Ki is less than 2 nM, N in every other case.

Query: I'd appreciate it if you could check whether CCCCOc1ccc(N2CCN(S(=O)(=O)C3(C(=O)NO)CCN(CCN4CCOCC4)CC3)CC2)cc1 [Example 233] has Ki smaller than 2 nM.
Reply: Y

Query: Given CCCCOc1ccc(N2CCN(S(=O)(=O)C3(C(=O)NO)CCN(Cc4ccc(C)o4)CC3)CC2)cc1 [Example 246] , is recorded Ki strictly lower than 2 nM?
Reply: Y

Query: Quick check: Ki of COCCN1CCC(C(=O)NO)(S(=O)(=O)N2CCN(c3ccc(CC(C)C)cc3)CC2)CC1 [Example 192] under 2 nM?
Reply: Y

Query: Lab note: confirm whether the reported Ki for this compound is below 2 nM, equality not counting. compound: O=C(NO)C1(S(=O)(=O)N2CCN(c3ccc(OCCN4CCCC4)cc3)CC2)CCOCC1 [Example 162]
Reply: N

Query: Dear reviewer, please state whether O=C(NO)C1(S(=O)(=O)N2CCN(c3ccc(-c4ccc(Cl)cc4)cn3)CC2)CCOCC1 [Example 60] has Ki strictly beneath 2 nM.
Reply: Y

Query: Field: below-cutoff. Rule: recorded Ki strictly less than 2 nM. Subject: CCCCOc1ccc(N2CCN(S(=O)(=O)C3(C(=O)NO)CCN(c4cccc(C)c4)CC3)CC2)cc1 [Example 226]
Reply: N

Query: I'd appreciate it if you could check whether CCCCOc1ccc(N2CCN(S(=O)(=O)C3(C(=O)NO)CCN(C(=S)N(C)C)CC3)CC2)cc1 [Example 123] has Ki smaller than 2 nM.
Reply: Y

Query: Hello, is Ki of the following compound strictly smaller than 2 nM? COCCN1CCC(C(=O)NO)(S(=O)(=O)N2CCN(c3ccc(OCCCC(F)(F)F)cc3F)CC2)CC1 [Example 102]
Reply: Y

Query: Here's an entry: CCCCOc1ccc(N2CCN(S(=O)(=O)C3(C(=O)NO)CCN(c4cnccn4)CC3)CC2)cc1 [Example 140] . Is its Ki below 2 nM?
Reply: Y

Query: In plain terms, does CCCCOc1ccc(N2CCN(S(=O)(=O)C3(C(=O)NO)CCN(C(=O)c4ccco4)CC3)CC2)cc1 [Example 156] come in under 2 nM for Ki?
Reply: Y

Query: Could you please tell me whether Ki recorded for CCCCOc1ccc(N2CCN(S(=O)(=O)C3(C(=O)NO)CCN(C(=O)OCCF)CC3)CC2)cc1 [Example 113] is less than 2 nM?
Reply: Y

Query: Please state whether Ki is below 2 nM for O=C(NO)C1(S(=O)(=O)N2CCN(c3ncc(-c4ccc(Cl)cc4)cn3)CC2)CCOCC1 [Example 66]
Reply: N

Query: Quick check: Ki of COCCN1CCC(C(=O)NO)(S(=O)(=O)N2CCN(c3ccc(C(C)=O)cc3)CC2)CC1 [Example 174] under 2 nM?
Reply: N

Query: Is the reported Ki for O=C(NO)C1(S(=O)(=O)N2CCN(c3cnc(CCCC(F)(F)F)cn3)CC2)CCOCC1 [Example 209] strictly below 2 nM?
Reply: N
